Target Desc: full-length recombinant rat vitamin D receptor (Rattus norvegicus, UniProt P13053)
Construct: Full-length recombinant rat receptor was expressed in E. coli; histidine tag (C); made in house; host or cells: E. coli BL21 (DE3) Codon Plus RIL
Sequence (P13053 whole entry): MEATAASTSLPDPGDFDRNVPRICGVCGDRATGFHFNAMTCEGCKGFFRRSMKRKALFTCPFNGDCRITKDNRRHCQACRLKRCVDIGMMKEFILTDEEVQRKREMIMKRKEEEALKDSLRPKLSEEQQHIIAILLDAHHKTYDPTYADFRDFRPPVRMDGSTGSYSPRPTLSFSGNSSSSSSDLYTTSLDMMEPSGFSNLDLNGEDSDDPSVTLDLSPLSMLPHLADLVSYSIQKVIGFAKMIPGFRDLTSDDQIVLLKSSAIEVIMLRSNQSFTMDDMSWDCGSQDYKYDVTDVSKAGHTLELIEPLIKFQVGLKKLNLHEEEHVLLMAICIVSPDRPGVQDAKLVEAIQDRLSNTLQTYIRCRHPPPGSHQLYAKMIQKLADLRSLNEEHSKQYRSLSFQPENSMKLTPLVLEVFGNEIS
Assay Text: Vitamin D receptor competitive binding with [3H]-1,25(OH)2D3
Test Context: FIG. 6 experiment (1D-MJ vs 1,25(OH)2D3); read-out: Ki, competition with [3H]-1,25(OH)2D3 for binding to vitamin D receptor
Quantity Kind: Ki (nM)
Output spec: scalar in nM, unitless text.

## Input Looking for the measured Ki of C=C1CC/C(=C\C=C2/CCC[C@]3(C)[C@@H]([C@H](C)CCCC(C)(C)O)CC[C@@H]23)C[C@H]1O , can you help?
## Output 4
